Target: SARS‐CoV‐2 RdRp complex (nsp12, nsp7, nsp8) (Severe acute respiratory syndrome coronavirus 2)
Assay: biochemical
Format: biochemical
Conditions: read-out: RA ± SD (residual activity of RdRp), at 10 μM concentration of screened compounds; AUC with compound / AUC of noninhibited reaction
Entries annotated with measured remaining activity at 10 µM
Express it in %; write the number only.

Solved entries (count: 2):
>>> experimental_result("O=C(Nc1cccc(C(F)(F)F)c1)Nc1ccc(Cl)cc1Cl")
64
>>> experimental_result("O=C(Nc1cc(Cl)cc(Cl)c1)Nc1ccc(C(F)(F)F)cn1")
100

input: So what's the measured remaining activity at 10 µM for this one? "NC(=O)c1ccc(C(F)(F)F)cc1NC(=O)Nc1cc(Cl)cc(Cl)c1"
output: 100

input: So what's the measured remaining activity at 10 µM for this one? "O=C(O)CNCc1ccc(NC(=O)Nc2cc(Cl)cc(Cl)c2)cc1C(F)(F)F"
output: 70

input: So what's the measured remaining activity at 10 µM for this one? "Cl.O=C(Nc1cc(Cl)cc(Cl)c1)Nc1ccc(CN2CCOCC2)c(C(F)(F)F)c1"
output: 36

###

Entries annotated with measured remaining activity at 10 µM
Biological target: SARS‐CoV‐2 RdRp complex (nsp12, nsp7, nsp8) (Severe acute respiratory syndrome coronavirus 2, UniProt P0DTD1)
Assay: biochemical
Assay type: biochemical
Conditions: read-out: RA ± SD (residual activity of RdRp), at 10 μM concentration of screened compounds; AUC with compound / AUC of noninhibited reaction

Solved entries (count: 7):
>>> experimental_result("COC(=O)C1CN(Cc2ccc(NC(=O)Nc3cc(Cl)cc(Cl)c3)cc2C(F)(F)F)CCO1.Cl (centres unmarked)")
"42%"
>>> experimental_result("O=C(Nc1cc(Cl)cc(Cl)c1)Nc1ccc(CN2CCOC(=O)C2)c(C(F)(F)F)c1")
"39%"
>>> experimental_result("O=C(Nc1ccc(C(F)(F)F)cc1)Nc1cc(Cl)cc(Cl)c1")
"34%"
>>> experimental_result("COCCNCc1ccc(NC(=O)Nc2cc(Cl)cc(Cl)c2)cc1C(F)(F)F")
"100%"
>>> experimental_result("O=C(Nc1cc(Cl)cc(Cl)c1)Nc1ccc(C(F)(F)F)nn1")
"68%"
>>> experimental_result("Cl.O=C(Nc1cc(Cl)cc(Cl)c1)Nc1ccc(CN2CCS(=O)(=O)CC2)c(C(F)(F)F)c1")
"37%"
>>> experimental_result("O=C(Nc1cnc(C(F)(F)F)nc1)Nc1cc(Cl)cc(Cl)c1")
"42%"

Switching to the query record.
input: So what's the measured remaining activity at 10 µM for this one? O=C(Nc1cc(Cl)cc(Cl)c1)Nc1ccc(CN2CCOC(C(=O)[O-])C2)c(C(F)(F)F)c1.[Li+] (centres unmarked)
output: ~65%

###

Entries annotated with measured remaining activity at 10 µM
Biological target: SARS‐CoV‐2 RdRp complex (nsp12, nsp7, nsp8) (Severe acute respiratory syndrome coronavirus 2, UniProt P0DTD1)
Assay: biochemical
Format: biochemical
Settings: read-out: RA ± SD (residual activity of RdRp), at 10 μM concentration of screened compounds; AUC with compound / AUC of noninhibited reaction

Solved entries (count: 4):
>>> experimental_result("NC(=O)c1c(Cl)cc(Cl)cc1NC(=O)Nc1cccc(C(F)(F)F)c1")
"100%"
>>> experimental_result("NC(=O)c1ccc(NC(=O)Nc2cc(Cl)cc(Cl)c2)cc1C(F)(F)F")
"~65%"
>>> experimental_result("Cl.O=C(Nc1cc(Cl)cc(Cl)c1)Nc1ccc(CN2CCCC2)c(C(F)(F)F)c1")
"46%"
>>> experimental_result("NCc1ccc(NC(=O)Nc2cc(Cl)cc(Cl)c2)cc1C(F)(F)F")
"78%"

Switching to the query record.
input: So what's the measured remaining activity at 10 µM for this one? "Cl.O=C(Nc1cc(Cl)cc(Cl)c1)Nc1ccc(C(F)(F)F)c(CN2CCOCC2)c1"
output: 65%
